Values compiled from ChEMBL document CHEMBL1153577.

# IC50 per entry
# Tested on: P388
# MEASUREMENT NOTES: Cytotoxicity against mouse P388 cell
# Format: functional, cell-based
# EXPERIMENTAL CONDITIONS: Mus musculus, P388
Just the number in µM, nothing appended.

SMILES RECORD | UNIT LABEL | IC50
COc1ccc2cc1Oc1ccc(cc1)C[C@H]1C(=O)N(C)[C@@H](C2)C(=O)N[C@H](C)C(=O)N[C@@H](C)C(=O)N(C)[C@@H](Cc2ccc(C)cc2)C(=O)N[C@@H](C)C(=O)N1C | µM | 0.024

Problem: I have this molecule here, `COc1ccc(C[C@H]2C(=S)N[C@@H](C)C(=O)N(C)[C@H]3Cc4ccc(cc4)Oc4cc(ccc4O)C[C@@H](C(=O)N[C@H](C)C(=O)N[C@@H](C)C(=O)N2C)N(C)C3=O)cc1` , and I need its recorded IC50.
Solution: 0.00115

Problem: I have this molecule here, `CCc1ccc(C[C@H]2C(=O)N[C@@H](C)C(=O)N(C)[C@H]3Cc4ccc(cc4)Oc4cc(ccc4OC)C[C@@H](C(=O)N[C@H](C)C(=O)N[C@@H](C)C(=O)N2C)N(C)C3=O)cc1` , and I need its recorded IC50.
Solution: 0.00933

Problem: I have this molecule here, `COc1ccc(C[C@H]2C(=S)N[C@@H](C)C(=O)N(C)[C@H]3Cc4ccc(cc4)Oc4cc(ccc4OC)C[C@@H](C(=O)N[C@H](C)C(=O)N[C@@H](C)C(=S)N2C)N(C)C3=O)cc1` , and I need its recorded IC50.
Solution: 0.00162

Problem: I have this molecule here, `COc1ccc(C[C@H]2C(=O)N[C@@H](C)C(=O)N(C)[C@H]3Cc4ccc(cc4)Oc4cc(ccc4OC)C[C@@H](C(=O)N[C@H](C)C(=O)N[C@@H](CCCCO)C(=O)N2C)N(C)C3=O)cc1` , and I need its recorded IC50.
Solution: 0.219

Problem: I have this molecule here, `COc1ccc(C[C@H]2C(=O)N[C@@H](C)C(=O)N(C)[C@H]3Cc4ccc(c(O)c4)Oc4cc(ccc4OC)C[C@@H](C(=O)N[C@H](C)C(=O)N[C@@H](C)C(=O)N2C)N(C)C3=O)cc1O` , and I need its recorded IC50.
Solution: 15.1

Problem: I have this molecule here, `COc1ccc(C[C@H]2C(=S)N[C@@H](C)C(=O)N(C)[C@H]3Cc4ccc(cc4)Oc4cc(ccc4OC)C[C@@H](C(=S)N[C@H](C)C(=O)N[C@@H](C)C(=O)N2C)N(C)C3=O)cc1` , and I need its recorded IC50.
Solution: 0.00214

Problem: I have this molecule here, `COc1ccc(C[C@H]2C(=O)N[C@@H](C)C(=O)N(C)[C@H]3Cc4ccc(cc4)Oc4cc(ccc4OC)C[C@@H](C(=O)N[C@H](C)C(=O)N[C@@H](CCC(=O)O)C(=O)N2C)N(C)C3=O)cc1` , and I need its recorded IC50.
Solution: 0.219

Problem: I have this molecule here, `COc1ccc(C[C@@H]2NC(=O)[C@H](C)NC(=O)[C@@H](C)NC(=O)[C@@H]3Cc4ccc(OC)c(c4)Oc4ccc(cc4)C[C@@H](C(=O)N3C)N(C)C(=O)[C@H](C)NC2=O)cc1` , and I need its recorded IC50.
Solution: 0.12
